Test: NCI Yeast Anticancer Drug Screen. Data for the rad50 strain (AID 155);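 further: 0% = growth of vehicle-only cultures of the same strain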
Settings: S. cerevisiae rad50 strain growth inhibition; at 50.0 µM
About 79,000 compounds went through this panel and 15% of them were active in at least one assay; those are over-represented in the sample as a whole. Active and inactive are the calls of the source. No stated cut-off is given here; in the data, active means growth inhibition above about 70%; inactive means the rest.
Just give me one of these, please: active, inactive

Exercise: Could you kindly confirm the outcome this assay logged for O=[N+]([O-])c1ccc2oc(=Nc3ccccc3)c(Nc3ccccc3)nc2c1 ?
Solution: inactive

Exercise: Could you kindly confirm the outcome this assay logged for O=C1c2cccnc2-c2nccc3c2c1nc1ccccc13 ?
Solution: active

Exercise: Could you kindly confirm the outcome this assay logged for Cc1cc2nc(/N=C/c3nc(O)c(C)[nH]3)[nH]c2cc1C ?
Solution: inactive

Exercise: Could you kindly confirm the outcome this assay logged for CC1CCC(CCBr)CC1 (stereo unspecified) ?
Solution: inactive

Exercise: Could you kindly confirm the outcome this assay logged for NC(=O)CS(=O)CC(N)C(=O)O (stereo unspecified) ?
Solution: inactive

Exercise: Could you kindly confirm the outcome this assay logged for N#CC(C(=O)CCC(=O)C(C#N)c1c(Cl)cccc1Cl)c1c(Cl)cccc1Cl (stereo unspecified) ?
Solution: inactive

* * *

Experiment: NCI Yeast Anticancer Drug Screen. Data for the sgs1 mgt1 strain (AID 161);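 further: 0% = growth of cultures given vehicle only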
Conditions: S. cerevisiae sgs1 mgt1 strain, at 50.0 µM, active compounds read high
The panel holds about 79,000 compounds, 15% with a hit somewhere; the sample as a whole holds those more often.
Assay Endpoint: growth inhibition (%)
Write it as a number; the unit % goes unstated.

Exercise: Entry O=C(Nc1ccccn1)c1ccc([N+](=O)[O-])cc1 has what growth inhibition?
Solution: 15.4

Exercise: Entry CCCCCCCCO[Si](OCCCCCCCC)(OCCCCCCCC)OCCCCCCCC has what growth inhibition?
Solution: -16.8

Exercise: Entry CC1OC(c2ccc3c(c2O)C(=O)C2=C(C3=O)C3(O)C(=O)CC(C)(O)CC3(O)C=C2)CC(O)C1O (stereo unspecified) has what growth inhibition?
Solution: -19.4

Exercise: Entry CCCCCCCCNCC(=O)O has what growth inhibition?
Solution: -5.35

Exercise: Entry COC1OC2COc3ccccc3OC2C2C1N2C(N)=S (stereo unspecified) has what growth inhibition?
Solution: 16.7

Exercise: Entry Cc1cc(C)c2c(c1)C(=O)c1ccccc1C2=O has what growth inhibition?
Solution: 47.4

* * *

Test: NCI Yeast Anticancer Drug Screen. Data for the mlh1 rad18 strain (AID 175)
Conditions: S. cerevisiae mlh1 rad18 strain growth inhibition; at 50.0 µM; active compounds read high
Experimental: Growth inhibition of yeast strains with defined genetic alterations is measured as a screen for potential anti-cancer activity. Selected strains with alterations in DNA damage repair or cell cycle control were exposed to compounds and growth inhibition was measured relative to vehicle treated controls. The strain used in this assay is mlh1 rad18
Compounds without any hit were thinned out: in the full panel of roughly 79,000, 15% have a hit.
Assay Endpoint: growth inhibition (%)
Write it as a number; the unit % goes unstated.

Exercise: Entry O=S(=O)(c1ccc(Br)cc1)S(=O)(=O)c1ccc(Br)cc1 has what growth inhibition?
Solution: -16.1

Exercise: Entry c1cc2c3c(cccc3c1)N1C(=N2)Sc2nc3ccccc3nc21 has what growth inhibition?
Solution: -3

Exercise: Entry Cc1c(/C=N/NC(=O)c2ccc(Cl)cc2)c(=O)n(-c2ccccc2)n1C has what growth inhibition?
Solution: -65.2

Exercise: Entry Cc1cc(N(CCC#N)CCC#N)ccc1/C=C(\NC(=O)/C=C/c1ccccc1)C(=O)Nc1ccccc1Cl has what growth inhibition?
Solution: 14.9

Exercise: Entry CC(C)(O)C1COC2=C1C(=O)c1ccccc1C2=O (stereo not given) has what growth inhibition?
Solution: -35.9
